- protocol-notes: qHTS for Inhibitors of human tyrosyl-DNA phosphodiesterase 1 (TDP1): qHTS in cells in absence of CPT; also: nearly all actives have a fitted effect of over 55% in size
- experimental-setup: DT40 Tdp1-/- hTDP1 cells, no CPT, ATP luminescence, 48 h
Screen size: about 420,000 compounds; about 64,000 (15%) were called active. Inconclusive results (about 27%) are left out. Calls follow the shape of the dose curve; as a rule, active = well fitted inhibition curve with a large enough effect; inconclusive = small, poorly fitted or top-dose-only effect; inactive = flat fitted curve, though single readings scatter. The list is a sample of the results.
Bench note: report the call from active, inactive

Cc1ccc(C)c(N2CCN(C(=O)CCCCn3c(=O)[nH]c4ccccc4c3=O)CC2)c1 ... active

Task: Test call for this molecule, please: "CCOC(=O)c1sc(=S)n2c1[nH]c(=O)c1ccc(C(=O)OC)cc12"
Result: active

Task: Test call for this molecule, please: COC(=O)c1ccc2c(=O)n(CC3CCCO3)c(=S)[nH]c2c1 (stereo not given)
Result: inactive

Task: Test call for this molecule, please: "CCOC(=O)c1sc2nc(C)[nH]c(=O)c2c1C"
Result: inactive

Task: Test call for this molecule, please: "O=C(CCCCCn1c(=O)[nH]c2ccccc2c1=O)NCCc1c[nH]c2ccccc12"
Result: inactive
